Recorded logD by entry
experiment: method code SF-AS, from DOI: 10.1021/jm00040a014, PMID: 8035429; conditions: pH 7.4
Could you keep your reply to the number by itself?

Some solved entries appear below for comparison.
CCOP(=O)(CC(=O)OCC1OC(n2ccc(N)nc2=O)CS1)OCC (stereo not drawn)    0.48
CCOP(=O)(OCC)C(=O)CCCCNc1ccn(C2CSC(CO)O2)c(=O)n1 (stereo not drawn)    1.21

// below: logD requested for another molecule
Looking up CCOP(=O)(OCC)C(=O)OCC1OC(n2ccc(NC(C)=O)nc2=O)CS1 (stereo not drawn) , I found its logD recorded as 0.65
